- Study Target: T1, HA-tagged human Neuropeptide S receptor, D105A mutant in the N107 background (human, UniProt Q6W5P4 1-371, D105A)
- T1 sequence (looked up): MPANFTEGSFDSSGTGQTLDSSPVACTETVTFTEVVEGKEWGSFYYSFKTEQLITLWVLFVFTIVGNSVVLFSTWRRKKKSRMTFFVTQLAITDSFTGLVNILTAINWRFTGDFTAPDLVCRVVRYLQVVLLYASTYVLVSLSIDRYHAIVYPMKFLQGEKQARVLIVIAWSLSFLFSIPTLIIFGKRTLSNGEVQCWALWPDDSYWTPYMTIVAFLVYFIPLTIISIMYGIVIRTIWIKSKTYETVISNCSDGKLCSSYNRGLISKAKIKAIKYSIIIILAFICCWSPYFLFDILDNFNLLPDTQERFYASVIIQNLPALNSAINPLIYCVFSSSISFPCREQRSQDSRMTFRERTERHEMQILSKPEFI
- Method Description: radioligand binding

Binder	IC50
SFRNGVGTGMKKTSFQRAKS (peptide, UniProt P0C0P6 70-89, looked up) [Neuropeptide S (human)]	> 200 nM
